Please provide measured TGI for the entries that follow.
test system: T-47D breast; test: NCI tumour cell line growth inhibition, 48 h

Enquiry: Find the recorded TGI belonging to CC1SC(c2c(Cl)cccc2Cl)N(NC(=O)C(O)c2ccccc2)C1=O (configuration not stated) and report it.
Return: > 100 µM

Enquiry: Looking for the measured TGI of `C1=C(c2ccccc2)SC=C(c2ccccc2)S1` , can you help?
Return: > 100 µM

Enquiry: For the compound `CS(=O)(=O)CCn1c(=O)c(Oc2ccc(F)cc2F)cc2cnc(NC3CCOCC3)nc21` , what TGI is on record?
Return: > 25 µM

Enquiry: Query (compound): `CCc1c(O)c2c(c(O)c1C(C)=O)C(=O)c1c(cc(O)c(C(=O)O)c1C(=O)O)C2=O` ; field requested: TGI
Return: > 100 µM

Enquiry: Fill blank: measured TGI of the compound `COc1cc2c(c(OC)c1OC)C(=O)[C@H](Br)[C@H]2NC(=O)NCCCl` is ____.
Return: > 100 µM

Enquiry: Give the measured TGI of O=C1c2ccccc2C(C2c3ccccc3C(=O)c3cc(Br)ccc32)c2ccc(Br)cc21 (configuration not stated) .
Return: > 100 µM

Enquiry: // TGI lookup, key: `CCOc1ccc2ccc3cccnc3c2n1`
Return: > 100 µM

Enquiry: For the compound `O=C(Cn1c2ccc(Br)cc2c2nc3ccccc3nc21)N/N=C/c1ccccc1` , what TGI is on record?
Return: > 100 µM

Enquiry: Quick one: TGI for `C/C(N=Nc1nc2ccccc2[nH]1)=C1/C=CC=CN1O` ?
Return: > 100 µM

Enquiry: Fill blank: measured TGI of the compound `CC(=O)c1sc(Nc2ccc(Cl)c(Cl)c2)nc1C` is ____.
Return: > 100 µM

Enquiry: # query: TGI of entry `NC(=S)N/N=C\c1nccc2c(N)cccc12`
Return: > 100 µM

Enquiry: Can you look up the measured TGI of `CC1(C)CC(=O)c2c(nc(SSc3nc4c(c(-c5ccc(Br)cc5)c3C#N)C(=O)CC(C)(C)C4)c(C#N)c2-c2ccc(Br)cc2)C1` for me?
Return: > 10 µM
